Test: CEM-101 in 60 mM tartaric acid with and without 0.9% NaCl, concentration by HPLC (Examples 3A, 3B)
Format: physicochemical
Conditions: aqueous buffer, thermodynamic from solid; approx. 90 mg CEM-101 in 1 mL 60 mM tartaric acid pH 2.16, mixed overnight (8% initial formulation); read-out: Saturated solubility by HPLC
recorded-endpoint: solubility (mg/mL)
Use mg/mL as the unit, but write only the number.

Which solubility is listed for CC[C@H]1OC(=O)[C@@](C)(F)C(=O)[C@H](C)[C@@H](O[C@@H]2O[C@H](C)C[C@H](N(C)C)[C@H]2O)[C@@](C)(OC)C[C@@H](C)C(=O)[C@H](C)[C@H]2N(CCCCn3cc(-c4cccc(N)c4)nn3)C(=O)O[C@]12C [CEM-101] ? 83

###

Test: Saturated solubility of CEM-101 in a range of vehicles (Example 5)
Type: physicochemical
Settings: simulated gastric fluid, thermodynamic from solid; vehicle 1M Hydrochloric Acid (sample 15); mixed 72 hours; HPLC
Method: EXAMPLE 5. Solubility of CEM-101 in a Range of Vehicles. […] Additional CEM-101 is added to vehicles which completely solubilized the CEM-101 API within 24 hours. Samples are allowed to mix for a total of 72 hours. Once mixed, the samples are assessed visually, centrifuged and then diluted to appropriate concentration for analysis by HPLC to determine saturated solubility. Without being bound by theory, it is believed herein that the vehicles are in situ salt forming compounds when mixed with CEM-101. […]
recorded-endpoint: solubility at 72 h

Which solubility at 72 h is listed for `CC[C@H]1OC(=O)[C@@](C)(F)C(=O)[C@H](C)[C@@H](O[C@@H]2O[C@H](C)C[C@H](N(C)C)[C@H]2O)[C@@](C)(OC)C[C@@H](C)C(=O)[C@H](C)[C@H]2N(CCCCn3cc(-c4cccc(N)c4)nn3)C(=O)O[C@]12C` ? 100 mg/mL

###

Assay: Excipient compatibility by HS-MCDSC (Example 8)
Assay type: physicochemical
Settings: API-excipient binary pair with CEM-101, 1:1 ratio, 30-80° C.
Description: EXAMPLE 8. Determination of Compatibility of Excipients for Lyophilized Pharmaceutical Composition. Excipient compatibility is assessed using high sensitivity multi-cell differential scanning calorimetry (HS-MCDSC). […] Stability (of an individual component) is usually assessed by loading a sample of the material into a cell and measuring the heat-flow as a function of time. […] Calorimetric data were recorded using a high sensitivity MCDSC (CSC Model 4100 MCDSC, USA). […]
recorded-endpoint: MC-DSC Results (No Interaction/Interaction)

[[record]]
molecule = "OC[C@@H](O)[C@@H](O)[C@H](O)[C@H](O)CO [Mannitol]"
reported = "No"

[[record]]
molecule = "NCC(=O)O [Glycine]"
reported = "No"

[[record]]
molecule = "OC[C@H]1O[C@@](CO)(O[C@H]2O[C@H](CO)[C@@H](O)[C@H](O)[C@H]2O)[C@@H](O)[C@@H]1O [Sucrose]"
reported = "No"


###

Test: Saturated solubility of CEM-101 in a range of vehicles (Example 5)
Format: physicochemical
Settings: pH 0.03, simulated gastric fluid, thermodynamic from solid; vehicle 1M Methane sulphonic Acid (sample 16); mixed 72 hours; HPLC
recorded-endpoint: solubility at 72 h
Give your result as the value with the unit written after it.

Which solubility at 72 h is listed for CC[C@H]1OC(=O)[C@@](C)(F)C(=O)[C@H](C)[C@@H](O[C@@H]2O[C@H](C)C[C@H](N(C)C)[C@H]2O)[C@@](C)(OC)C[C@@H](C)C(=O)[C@H](C)[C@H]2N(CCCCn3cc(-c4cccc(N)c4)nn3)C(=O)O[C@]12C [CEM-101] ? 100 mg/mL
